Tested on: BFU-E (human bone marrow cells)
Test: Human bone marrow toxicity BFU-E clonogenic assay
Conditions: read-out: IC50 BFU-E, colony formation after 14 to 18 days
READOUT TYPE: IC50

Report IC50, nothing else, for this molecule: `C[C@@]1(O)[C@H](O)[C@@H](CO)O[C@H]1n1cnc2c(N)ncnc21`
> 100 µM

Shifting focus to the molecule that follows.
Report IC50, nothing else, for this molecule: `C[C@@]1(O)[C@H](O)[C@@H](CO)O[C@H]1n1cnc2c(=O)[nH]c(N)nc21`
> 100 µM
